Measured values drawn from the supplement of paper PMC10567573 for this set.

B1: FAM46D (parent)
chain: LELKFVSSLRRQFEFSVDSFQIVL

# Variants of: B1
# Procedure Details: protein stability index of a GFP-peptide fusion (GPS, HEK-293T) (PSI 1-6); higher = more stable;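 note: lentivirally expressed fusions sorted by FACS into six bins by GFP to DsRed ratio, PSI derived from sequencing read proportions per bin multiplied by bin number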
# Measurement Context: c terminus: a fixed tail appended
Readout Label: protein stability index
Numbers only.

Example variants with recorded protein stability index:
INSERT INTO results (sequence_record, measured_number) VALUES
  ('LELKFVSHLRRQFEFSVDSFQIVL [S8H]', 3.22),
  ('LELKFVSSLRRQFEFVVDSFQIVL [S16V]', 3.91),
  ('LELKFVSSLRRQFEFSVLSFQIVL [D18L]', 2.1),
  ('LEIKFVSSLRRQFEFSVDSFQIVL [L3I]', 2.5),
  ('LELKFVSSLRRQNEFSVDSFQIVL [F13N]', 2.82);

For the 7 variants below, give their protein stability index values.
1. LQLKFVSSLRRQFEFSVDSFQIVL [E2Q]
2. LELVFVSSLRRQFEFSVDSFQIVL [K4V]
3. LELKFVSSLRRQFNFSVDSFQIVL [E14N]
4. LELKFVSSLRRQFEFSVNSFQIVL [D18N]
5. LELKFVSSLRRQFQFSVDSFQIVL [E14Q]
6. LVLKFVSSLRRQFEFSVDSFQIVL [E2V]
7. LELKFVSSLRRQFEFSVDSFQIVA [L24A]

## Output
1. 2.48
2. 4.21
3. 2.89
4. 3.43
5. 2.24
6. 3.32
7. 2.78

Answer for every listed entry: what is its protein stability index? The entries follow.
1. LRLKFVSSLRRQFEFSVDSFQIVL [E2R]
2. LELKFVSSLRRQFEFSVDKFQIVL [S19K]

## Output
[3.42, 2.88]

Please go through the list and note protein stability index for each variant.
1. YELKFVSSLRRQFEFSVDSFQIVL [L1Y]
2. LELKFVSSLRRQFEFSVDSFQIVI [L24I]
3. LEYKFVSSLRRQFEFSVDSFQIVL [L3Y]
4. LELKFVSSLRRQFEFSVDSYQIVL [F20Y]
5. KELKFVSSLRRQFEFSVDSFQIVL [L1K]
6. LELKFVYSLRRQFEFSVDSFQIVL [S7Y]
7. LELKFVSSLRRQFEWSVDSFQIVL [F15W]

## Output
1: 2.56; 2: 3.26; 3: 2.2; 4: 3.11; 5: 2.36; 6: 3.11; 7: 3.57

For each of the variants below, state protein stability index.
1. LELKFVSSLRRQFEFSVDEFQIVL [S19E]
2. LELKFVSSLRRQFEFSVDSFKIVL [Q21K]
3. LELKAVSSLRRQFEFSVDSFQIVL [F5A]
4. LELKFVSSLRRQFEFSVDSFMIVL [Q21M]
5. LELKFVSSLRRQFEFSVDSHQIVL [F20H]
6. LELKFVSSLRRQFEKSVDSFQIVL [F15K]

## Output
1. 3.31
2. 3.44
3. 3.94
4. 2.78
5. 2.62
6. 2.13
